// merged dataset of IC50 values, system = Lysine-specific histone demethylase 1A (Homo sapiens), multiple refs

Tested system Lysine-specific histone demethylase 1A (Homo sapiens); IC50 recorded for `Cc1ccc(-c2c(-c3ccc(C#N)cc3)nc(NC[C@@H]3CCNC3)c(=O)n2C)cc1` was < 100 nM

Tested system Lysine-specific histone demethylase 1A (Homo sapiens); IC50 recorded for `Cn1c(N2CCC(N)CC2)nc(-c2ccc(C#N)c(F)c2)cc1=O` was < 100 nM

Tested system Lysine-specific histone demethylase 1A (Homo sapiens); IC50 recorded for `CNC1CCN(c2cc(-c3ccc(C#N)cc3)c(-c3ccc(OC)cc3)n(C)c2=O)CC1` was < 100 nM

Tested system Lysine-specific histone demethylase 1A (Homo sapiens); IC50 recorded for `COc1ccc(-c2c(-c3ccc(C#N)cc3)cc(N3CCC(N)CC3)c(=O)n2C)cc1` was < 100 nM

Tested system Lysine-specific histone demethylase 1A (Homo sapiens); IC50 recorded for `O=C(O)c1ccc(N2CCC(c3nc(C4(CN[C@H]5C[C@@H]5c5ccccc5)CC4)no3)CC2)cc1` was 100 to 500 nM

Tested system Lysine-specific histone demethylase 1A (Homo sapiens); IC50 recorded for `Cn1cc2cc(-c3ncc(N4CCC(N)CC4)nc3-c3ccc(C#N)c(F)c3)ccc2n1` was < 100 nM

Tested system Lysine-specific histone demethylase 1A (Homo sapiens); IC50 recorded for `Cc1c2cc(-n3c(-c4ccc(C#N)c(F)c4)nc(C(=O)N4CC[C@H](N(C)C)C4)c3C)ccc2nn1C` was < 100 nM

Tested system Lysine-specific histone demethylase 1A (Homo sapiens); IC50 recorded for `CN(C)c1ncc(-c2c(-c3ccc(C#N)c(F)c3)nc(N3CCC(N)CC3)n(C)c2=O)cn1` was < 100 nM

---

// merged dataset of pIC50 values, system = Lysine-specific histone demethylase 1A (Homo sapiens), multiple refs
pIC50: −log10 of the molar value.

# example entries with known answers
1. CN[C@@H]1CCCN(c2ccnc3c2nc(-c2ccc(C#N)cc2)n3-c2ccc(C3CC3)cc2)C1    7.36
2. Cn1c(-c2ccc(C3CC3)cc2)c(-c2ccc(C#N)c(F)c2)cc(NC[C@H]2CCNC2)c1=O    > 7.00
3. O=C(O)[C@H]1CC[C@@H](c2nc(C3(CN[C@H]4C[C@@H]4c4ccccc4)CC3)no2)CC1    6.30 to 7.00
4. COc1ccc(-c2c(-c3ccc(C#N)c(F)c3)nc(N(C)C[C@@H]3CCNC3)n(C)c2=O)cc1 (stereo in doubt)    > 7.00

# pIC50 (compound: `COc1ccc(-n2nc(NC[C@H]3CCCNC3)cc2-c2ccc(C#N)c(F)c2)cc1` ) is > 6.30

# pIC50 (compound: C[C@@H]1CN(CC2(CN[C@H]3CC3c3ccccc3)CC2)C[C@H](C)O1 (stereo partly shown) ) is 6.30 to 7.00

# pIC50 (compound: `COc1ccc(Cn2cc(-c3ccc(C#N)cc3)nc(N3CCC(N)CC3)c2=O)cc1` ) is > 7.00

---

// merged dataset of IC50 values, system = Lysine-specific histone demethylase 1A (Homo sapiens), multiple refs

# example entries with known answers
1) COc1ccc(-c2c(-c3ccc(C#N)c(F)c3)nc3c(N4CCC[C@@H](N)C4)nccn23)cc1F    1.3 nM
2) Cn1c(N2CCC(N)CC2)nc(-c2ccc(C#N)c(F)c2)c(-c2ccc(N3CCCC3)nc2)c1=O    < 100 nM
3) COc1ccc(-c2c(-c3ccc(C#N)c(F)c3)nc(N3CCNCC3)n(C)c2=O)cc1F    < 100 nM

# IC50 (compound: `CS(=O)(=O)c1ccc(-c2cc(-c3cc(C#N)c(N4CCNCC4)[nH]3)ccc2Cl)cc1` ) is 12 nM
